pEC50: recorded values
# target-under-test: T1, cynomolgus PD-L1-His (Sino Biological, Cat. 90251-C08H) (cynomolgus, UniProt Q9NZQ7 19-238 (human entry))
# T1 construct: Bought protein; also called Cyno PD-L1; Cynomolgus PD-L1 ECD-His; not shown: His tag
# T1 sequence (Q9NZQ7 other isoform, or with tags, fused parts or gaps C08H C08H limits assumed): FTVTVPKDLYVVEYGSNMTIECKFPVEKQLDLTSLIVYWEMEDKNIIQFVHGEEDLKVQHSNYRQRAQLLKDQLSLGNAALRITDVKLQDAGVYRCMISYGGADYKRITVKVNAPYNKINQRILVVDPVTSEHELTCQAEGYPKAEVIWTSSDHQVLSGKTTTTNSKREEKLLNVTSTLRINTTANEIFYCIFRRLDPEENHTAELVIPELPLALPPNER
# assay-name: ELISA, coated cyno PD-L1-His
Note: pEC50 values are expressed as the negative base-10 logarithm of concentration in M.

>  <binder>
33H7 (antibody, human IgG1, V domains shown) VH: QEQLVESGGGLVQPEGSLTVTCTASGFDLSRYFYMSWVRQAPGKGLEWIASISTGSDITDYASWAKGRFTISKTSSTTVTLQMTTLTAADTAIYFCARWTSGGGGFGLWGPGTLVTVSS VL: QVLTQTASPVSAAVGGTVTLNCQSSQSIYNNYLSWYQQRAGQPPKLLIYSTATLASGVPSRFKGSGSGTQFTLTISEIQCEDAATYYCQGYYSGYIWTFGGGTEVVVK

>  <pEC50>
10.89

$$$$
>  <binder>
32E2 (antibody, human IgG1, V domains shown) VH: QEQLEESGGDLVKPEGSLTLTCTASGFSFSSSYYMSWVRQAPGMGLEWIASISGGVTDNAYYASWAKGRFTVSKTSSTTVTLQLTSLTAADTATYFCARDSSSGYFFLLWGPGTLVTVSS VL: LVMTQTPSSVSAAVGGTVTINCQASQNIYSNLAWYQQKPGQRPKLLIFGASNLRSGVPSRFKGSGSGTEYTLTISDLECADAATYYCQEGYSIGNVDNPFGGGTEVVVK

>  <pEC50>
9.75

$$$$

Kindly review the next binder as well.
Ask: Give reported pEC50 value for 69D10 (antibody, human IgG1, V domains shown) VH: QEQLEESGGGLVQPEGSLTLTCTASGFSFSGDWYMSWVRQAPGKGLEWIASIYSGSLNTYYATWAKGRFTVSLTSSTTVTLQMTSLTAADTATYFCARRNKNADYGHFDLWGPGTLVTVSS VL: YDMTQTPASVEVAVGGTVTIKCQASQSIGNALAWYQQKPGQPPKLLIYATSTLASGVPSRFKGSGSGTEFTLTISDLECGDAATYYCQQGWTVSSLDNAFGGGTEVVAK
Reply: 10.75
